# experimental-system: T1, human SLC34A2 (human, UniProt O95436 1-690)
# T1 sequence (looked up): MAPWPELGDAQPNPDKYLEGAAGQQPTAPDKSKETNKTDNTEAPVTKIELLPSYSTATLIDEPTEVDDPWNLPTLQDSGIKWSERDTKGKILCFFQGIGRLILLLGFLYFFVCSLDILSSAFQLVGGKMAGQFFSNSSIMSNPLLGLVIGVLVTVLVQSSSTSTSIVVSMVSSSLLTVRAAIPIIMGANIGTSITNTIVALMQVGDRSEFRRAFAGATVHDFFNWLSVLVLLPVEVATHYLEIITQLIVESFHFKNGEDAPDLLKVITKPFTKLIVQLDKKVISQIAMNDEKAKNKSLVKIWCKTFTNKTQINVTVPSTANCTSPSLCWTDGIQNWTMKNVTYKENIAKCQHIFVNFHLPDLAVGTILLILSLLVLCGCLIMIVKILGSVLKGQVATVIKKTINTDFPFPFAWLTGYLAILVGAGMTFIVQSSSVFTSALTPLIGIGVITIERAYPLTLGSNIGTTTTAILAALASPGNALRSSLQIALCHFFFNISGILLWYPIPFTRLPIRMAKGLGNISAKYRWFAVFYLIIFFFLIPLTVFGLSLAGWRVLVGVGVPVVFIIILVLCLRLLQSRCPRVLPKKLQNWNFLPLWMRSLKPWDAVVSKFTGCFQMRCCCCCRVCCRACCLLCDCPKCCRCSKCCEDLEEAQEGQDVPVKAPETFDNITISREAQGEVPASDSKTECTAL
# procedure-text: cell-based or functional assay
value-kind: cytotoxicity EC50 (nM)
Entry rule: numbers only, all in nM.

Which measured cytotoxicity EC50 value corresponds to xi94E9B12 hIgG1 (antibody, V domains shown, chimeric, hIgG1) VH: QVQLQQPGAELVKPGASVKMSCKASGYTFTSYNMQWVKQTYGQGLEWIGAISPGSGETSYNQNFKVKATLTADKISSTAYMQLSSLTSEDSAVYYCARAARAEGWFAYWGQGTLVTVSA VL: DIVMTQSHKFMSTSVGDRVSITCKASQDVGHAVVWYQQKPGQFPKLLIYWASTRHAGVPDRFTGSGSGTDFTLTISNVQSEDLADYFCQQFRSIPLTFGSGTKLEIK ?
0.85

Which measured cytotoxicity EC50 value corresponds to xi63A11D5B4 hIgG1 (antibody, V domains shown, chimeric, hIgG1) VH: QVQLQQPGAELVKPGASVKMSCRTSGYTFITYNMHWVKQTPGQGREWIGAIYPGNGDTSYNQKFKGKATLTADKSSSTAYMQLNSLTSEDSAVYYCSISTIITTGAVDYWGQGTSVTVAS VL: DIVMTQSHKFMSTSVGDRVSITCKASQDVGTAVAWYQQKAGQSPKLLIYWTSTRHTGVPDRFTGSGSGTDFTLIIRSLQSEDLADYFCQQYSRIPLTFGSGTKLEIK ?
0.66

Which measured cytotoxicity EC50 value corresponds to xi78D1B10 hIgG1 (antibody, V domains shown, chimeric, hIgG1) VH: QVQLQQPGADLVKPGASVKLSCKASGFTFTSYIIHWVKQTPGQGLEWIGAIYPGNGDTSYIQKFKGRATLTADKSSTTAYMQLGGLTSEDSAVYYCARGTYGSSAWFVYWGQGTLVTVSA VL: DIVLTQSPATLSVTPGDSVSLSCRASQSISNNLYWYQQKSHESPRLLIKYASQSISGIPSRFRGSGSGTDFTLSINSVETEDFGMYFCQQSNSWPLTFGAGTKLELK ?
0.5
